Could you please report measured Ki for the items listed next?
Biological target: Cannabinoid receptor 2 (Homo sapiens, UniProt P34972)
Sequence (P34972 whole entry): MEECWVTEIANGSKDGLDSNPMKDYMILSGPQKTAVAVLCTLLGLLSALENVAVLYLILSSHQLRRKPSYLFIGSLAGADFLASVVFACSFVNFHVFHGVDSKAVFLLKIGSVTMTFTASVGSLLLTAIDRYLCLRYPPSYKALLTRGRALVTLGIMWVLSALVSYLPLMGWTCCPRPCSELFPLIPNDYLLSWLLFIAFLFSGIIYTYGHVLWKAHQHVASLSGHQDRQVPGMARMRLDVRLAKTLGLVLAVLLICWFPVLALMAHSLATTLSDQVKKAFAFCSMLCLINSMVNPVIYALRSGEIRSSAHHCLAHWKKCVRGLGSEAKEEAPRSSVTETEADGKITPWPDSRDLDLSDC
Assay: Displacement of [3H]CP55,940 from human recombinant CB2 receptor expressed in HEK293 cell membranes after 90 mins

Prompt: Query (compound): O=C(O)CCCn1cccc(C(=O)NC2CCCCCC2)c1=O ; field requested: Ki
Completion: > 10 µM

Prompt: Further, for CC1CCC(NC(=O)c2cccn(CCCO)c2=O)CC1 (stereo not drawn) ?
Completion: > 10 µM

Prompt: Further, for CC1CCC(NC(=O)c2cccn(CCO)c2=O)CC1 (stereo not drawn) ?
Completion: > 10 µM
